- system under test: F508delCFTR (Homo sapiens, UniProt P13569, DEL508-508)
- Construct: expressed in transfected cells; host or cells: CFBE41o- human lung-derived epithelial cells (CFBE4lo-F508delCFTR-HRP), doxycycline-inducible
- Sequence (P13569 with tags, fused parts or gaps DEL508-508): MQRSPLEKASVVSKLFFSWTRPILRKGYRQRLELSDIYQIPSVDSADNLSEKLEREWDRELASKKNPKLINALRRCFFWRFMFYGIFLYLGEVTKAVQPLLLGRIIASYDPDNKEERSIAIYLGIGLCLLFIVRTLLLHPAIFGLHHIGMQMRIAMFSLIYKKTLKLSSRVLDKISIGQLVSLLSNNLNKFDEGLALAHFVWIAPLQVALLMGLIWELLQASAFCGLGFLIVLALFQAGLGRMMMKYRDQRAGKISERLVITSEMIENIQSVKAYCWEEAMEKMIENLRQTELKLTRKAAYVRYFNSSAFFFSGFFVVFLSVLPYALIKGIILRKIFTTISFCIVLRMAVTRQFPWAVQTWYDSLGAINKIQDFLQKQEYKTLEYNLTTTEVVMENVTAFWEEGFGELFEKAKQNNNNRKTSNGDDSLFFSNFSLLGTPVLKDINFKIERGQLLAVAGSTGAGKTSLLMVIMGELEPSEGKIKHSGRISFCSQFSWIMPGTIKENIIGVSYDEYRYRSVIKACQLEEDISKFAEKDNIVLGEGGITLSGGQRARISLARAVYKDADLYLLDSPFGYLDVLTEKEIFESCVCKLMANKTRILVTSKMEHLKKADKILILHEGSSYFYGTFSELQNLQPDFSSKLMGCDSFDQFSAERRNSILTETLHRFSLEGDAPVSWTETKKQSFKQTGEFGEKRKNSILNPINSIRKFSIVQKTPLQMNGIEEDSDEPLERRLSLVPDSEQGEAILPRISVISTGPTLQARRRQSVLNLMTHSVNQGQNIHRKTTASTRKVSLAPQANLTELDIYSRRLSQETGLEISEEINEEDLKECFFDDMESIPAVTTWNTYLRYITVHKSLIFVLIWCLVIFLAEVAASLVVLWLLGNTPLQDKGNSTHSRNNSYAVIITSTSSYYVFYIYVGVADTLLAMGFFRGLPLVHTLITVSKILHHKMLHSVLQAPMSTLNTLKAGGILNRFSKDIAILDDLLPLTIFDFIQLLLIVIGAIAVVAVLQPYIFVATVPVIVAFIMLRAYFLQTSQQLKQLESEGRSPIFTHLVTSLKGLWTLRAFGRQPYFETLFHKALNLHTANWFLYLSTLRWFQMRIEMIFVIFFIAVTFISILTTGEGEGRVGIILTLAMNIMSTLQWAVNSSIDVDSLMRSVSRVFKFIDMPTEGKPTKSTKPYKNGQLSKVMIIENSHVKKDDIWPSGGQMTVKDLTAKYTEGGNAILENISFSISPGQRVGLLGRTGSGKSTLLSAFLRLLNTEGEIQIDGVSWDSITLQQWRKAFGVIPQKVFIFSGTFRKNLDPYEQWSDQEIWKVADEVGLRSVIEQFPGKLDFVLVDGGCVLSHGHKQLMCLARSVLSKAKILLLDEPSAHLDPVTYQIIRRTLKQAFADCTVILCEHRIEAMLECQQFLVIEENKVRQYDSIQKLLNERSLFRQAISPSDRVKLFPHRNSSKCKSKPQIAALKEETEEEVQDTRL
- assay method text: Cell Surface Expression-Horse Radish Peroxidase (CSE-HRP) Assay;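 for Maximum % activity (without co-corrector): percent of the 2 µM on-plate positive control corrector response above DMSO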
- Type: cell-based
- run conditions: CSE-HRP; without co-corrector; maximum at any tested concentration, normalized to on-plate positive control; read-out: Maximum % activity (without co-corrector)
# Emax values compiled below

>>> print(df.to_string())
                                   compound  observed_property  recorded_value
0  COc1ncc(C2CCC2)cc1CN[C@H]1[C@H](C(C)(C)C)[C@@H](C(=O)O)N(C(=O)[C@@H]2CCCO2)[C@H]1c1ccccc1C               Emax          > 200%
1  COc1cc(C(F)(F)F)ccc1CN[C@H]1[C@H](C(C)(C)C)[C@@H](C(=O)O)N(C(=O)[C@H]2CCCCO2)[C@H]1c1ccccc1               Emax     100 to 200%
2  COc1cc(C(F)(F)F)ccc1CN[C@@H]1[C@@H](C(C)(C)C)[C@H](C(=O)O)N(C(=O)C2CCCCC2)[C@@H]1c1cccnc1N(C)C (racemic)               Emax     100 to 200%
3  COc1cc(C(F)(F)F)ccc1CN[C@H]1[C@H](C(C)(C)C)[C@@H](C(=O)O)N(C(=O)[C@H](OC)c2ccccc2)[C@H]1c1cccnc1N(C)C (racemic) [II-48]               Emax     100 to 200%
4  COc1nc2ccccc2cc1CN[C@H]1[C@H](C(C)(C)C)[C@@H](C(=O)O)N(C(=O)C2CCCCC2)[C@H]1c1ccccc1               Emax          > 200%

Moving on to another compound below.
Please report the recorded Emax for COc1ccc(C(C)(C)C)cc1CN[C@H]1[C@H](C(C)(C)C)[C@@H](C(=O)O)N(C(=O)CC2(C)CCC(F)(F)C2)[C@H]1c1ccccc1 (stereo partly drawn) . 100 to 200%

* * *

# pEC50 values compiled below
- system under test: F508delCFTR (Homo sapiens, UniProt P13569, DEL508-508)
- Construct: expressed in transfected cells; host or cells: CFBE41o- human lung-derived epithelial cells (CFBE4lo-F508delCFTR-HRP), doxycycline-inducible
- assay method text: Cell Surface Expression-Horse Radish Peroxidase (CSE-HRP) Assay
- Assay type: cell-based
- run conditions: with co-corrector (2 μM of 3-[(2R,4R)-4-({[1-(2,2-difluoro-1,3-benzodioxol-5-yl)cyclopropyl]carbonyl}amino)-7-methoxy-3,4-dihydro-2H-chromen-2-yl]benzoic acid); read-out: EC50 (with co-corrector)
pEC50: −log10 of the molar value.

compound	system under test	pEC50
CC(C)(C)[C@H]1[C@H](Nc2cc(C(F)(F)F)cc(C3CCC3)n2)[C@H](c2ccccc2)N(C(=O)C2CCCCC2)[C@@H]1C(=O)O [Example I-67]	F508delCFTR (Homo sapiens, UniProt P13569, DEL508-508)	5.00 to 6.00
COc1ncc(-c2ccc(F)cc2C)cc1CN[C@H]1[C@H](C(C)(C)C)[C@@H](C(=O)O)N(C(=O)C2CCCCC2)[C@H]1c1cccnc1N(C)C [II-409]	F508delCFTR (Homo sapiens, UniProt P13569, DEL508-508)	> 6.00
CC(C)(C)[C@H]1[C@H](NCc2cc(Cl)c3c(c2)OCO3)[C@H](c2ccccc2)N(C(=O)C2CCCCC2)[C@@H]1C(=O)O [III-140]	F508delCFTR (Homo sapiens, UniProt P13569, DEL508-508)	5.00 to 6.00

Please report the recorded pEC50 for COc1ccc(C(C)(C)C)cc1CN[C@H]1[C@H](C(C)(C)C)[C@@H](C(=O)O)N(C(=O)C2CCC(C(F)(F)F)CC2)[C@H]1c1ccccc1 (some centres unmarked) [II-374] . > 6.00

Please report the recorded pEC50 for COc1ncc(C(F)(F)F)cc1CN[C@H]1[C@H](C(C)(C)C)[C@@H](C(=O)O)N(C(=O)[C@@H]2CCCCO2)[C@H]1c1ccccc1C1CC1 [Example 116] . > 6.00

Please report the recorded pEC50 for CC(C)(C)[C@H]1[C@H](NCc2ccc3occc3c2)[C@H](c2ccccc2)N(C(=O)C2CCCCC2)[C@@H]1C(=O)O [III-135] . 5.00 to 6.00
